Would you kindly list protein stability index for each of these variants?
B1: KRT18 (parent)
chain: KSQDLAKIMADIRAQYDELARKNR

Variants of: B1
TEST SUMMARY: protein stability index of a GFP-peptide fusion (GPS, HEK-293T) (PSI 1-6); higher = more stable;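 note: lentivirally expressed fusions sorted by FACS into six bins by GFP to DsRed ratio, PSI derived from sequencing read proportions per bin multiplied by bin number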
ASSAY CONDITIONS: c terminus: a fixed tail appended
One number for each entry.

Examples with answers:
| MUTATION | protein stability index |
| --- | --- |
| D11F | 1.8 |
| E18F | 2.74 |
| K1C | 2.51 |
| I8H | 3.8 |
| D4A | 2.13 |

With those in mind, consider the next variant.
What value of measured protein stability index is listed for `Q3W` ?
1.71
